# Tested on: Anti-CD28 Fab (SEQ ID NOs: 696, 697)
# Sequence (VH, as listed by the source, chain 1 of 2): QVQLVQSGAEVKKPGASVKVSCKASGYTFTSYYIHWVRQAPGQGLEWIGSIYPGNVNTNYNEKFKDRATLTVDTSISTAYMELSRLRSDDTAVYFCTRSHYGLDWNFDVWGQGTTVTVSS
# Sequence (VL, as listed by the source, chain 2 of 2): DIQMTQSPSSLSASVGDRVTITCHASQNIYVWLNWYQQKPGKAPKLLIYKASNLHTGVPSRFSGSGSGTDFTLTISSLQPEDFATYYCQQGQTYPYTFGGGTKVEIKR
# Protocol description: phage binding ELISA on anti-CD28 Fab; wells first incubated with CD28 antigen as competitor
Binary classification by Anti-CD28 Fab signal in the presence of CD28, with 0.08 as an inclusive lower bound for T; all other cases are F.

Below, 2 binders whose answers are already recorded.
{"Binder": "YCDGHSSEYMIKCL [Phage-727]", "Class label": "F"}
{"Binder": "YCAGHLEIYMNKCL [Phage-733]", "Class label": "F"}

Identify whether the reported Anti-CD28 Fab signal in the presence of CD28 of the following binder is 0.08 or greater: YCEGHLSEYMAKCL [Phage-734]
T

Try the binder YCDGHLIEYMYKCL [Phage-728]
T

The values you see were collected from patent US20260242478A1.
